assay: calcium flux activation in mu-opioid HEK293 cells, confirmation, counter-screen for TRPC4 activator project, cell-based, HEK293 mu-opioid receptor line (AID 449723); conditions: Fluo-4 calcium fluorescence, at 10 µM;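 further: counter screen cells carry the mu-opioid receptor alone and lack TRPC4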; on activation: reference of the scale not given here
Activity calls are given as the source filed them.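 How the source made its calls: active means hit in primary screen, with calcium signal over 5 SD above buffer well mean in both duplicates; inactive means the rest.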
Tick one outcome: active, inactive

// known answers, use as guide
Cc1ccc(-n2cc(CNCCc3ncc(C)[nH]3)c(-c3ccc(F)cc3)n2)cc1 = inactive
Cc1ccc(N2CCN(c3ccc(NCc4nc5ccccc5n4C)cc3)CC2)cc1 = inactive
CCCCC(=O)NNC(=S)NC(=O)c1ccc(C)cc1 = inactive
O=C(Nc1nnc(-c2ccccc2Cl)o1)c1nc2ccccc2s1 = active
CCCCN(CC)CCNC(=O)c1cc2cc3ccc(Cl)cc3nc2o1 = inactive

Exercise: Returns: the outcome recorded for Cc1cc(Cl)cc(C)c1OCCCCn1ccnc1 in this assay.
Key: inactive

Exercise: Returns: the outcome recorded for CCn1c(N2CCN(C(=O)Nc3ccc(F)cc3)CC2)nc2ccccc21 in this assay.
Key: inactive

Exercise: Returns: the outcome recorded for CC1CCCN(CCCNC(=O)c2ccc3c(c2)N(Cc2ccccc2F)C(=O)c2ccccc2S3(=O)=O)C1 (configuration not stated) in this assay.
Key: inactive

Exercise: Returns: the outcome recorded for Cc1cc(NC(=O)c2cnn3cccnc23)nn1CC(=O)Nc1cccnc1 in this assay.
Key: inactive

Exercise: Returns: the outcome recorded for Cc1sc2ncnc(NC3CCN(Cc4ccccc4)CC3)c2c1C in this assay.
Key: inactive

Exercise: Returns: the outcome recorded for CCCCN(CC)CCCNC(=O)Cn1nc(Cc2ccncc2)c2ccccc2c1=O in this assay.
Key: inactive

Exercise: Returns: the outcome recorded for CCOC(=O)C1(CCc2ccccc2)CCN(Cc2ccc(O)cc2)CC1 in this assay.
Key: inactive

Exercise: Returns: the outcome recorded for Cc1cc(C)n(-c2nc(SCCN(C)C)c3c4c(sc3n2)CCCC4)n1 in this assay.
Key: inactive

Exercise: Returns: the outcome recorded for Cc1ccc2c(C)c(C(=O)N(Cc3cccs3)C3CCS(=O)(=O)C3)oc2c1 (configuration not stated) in this assay.
Key: inactive

Exercise: Returns: the outcome recorded for Cc1ccc(C)c(CN2CCC(CNC(=O)CCc3nnc4ccc(N5CCCCC5)nn34)CC2)c1 in this assay.
Key: inactive

Exercise: Returns: the outcome recorded for C/C(=N/NC(=O)c1ccc(Cn2cccn2)o1)c1cccc(NC(=O)c2ccncc2)c1 in this assay.
Key: inactive

Exercise: Returns: the outcome recorded for CC1CC(C)CN(CCCNC(=O)c2nn(C)c3c2CS(=O)(=O)c2ccccc2-3)C1 (configuration not stated) in this assay.
Key: inactive

Exercise: Returns: the outcome recorded for NCCSc1c(-c2ccc(Cl)cc2)[nH]c2ccccc12 in this assay.
Key: active

Exercise: Returns: the outcome recorded for COc1ccc(C(CNC(=O)c2ccc(S(=O)(=O)N(C)C)cc2)N(C)C)cc1 (configuration not stated) in this assay.
Key: inactive

Exercise: Returns: the outcome recorded for CC1Cc2ccccc2N1C(=O)CSc1nc2c(c(=O)n(C)c(=O)n2C)n1Cc1ccccc1 (configuration not stated) in this assay.
Key: inactive

Exercise: Returns: the outcome recorded for CN(C)C(CNC(=O)c1cc2ccccc2oc1=O)c1ccccc1 (configuration not stated) in this assay.
Key: inactive

Exercise: Returns: the outcome recorded for COc1ccc(C(=O)NNC(=S)NC(=O)c2ccccc2)cc1 in this assay.
Key: active
